systemUnderTest: EPHB2 (UniProt P29323)
Sequence (P29323 whole entry, looked up): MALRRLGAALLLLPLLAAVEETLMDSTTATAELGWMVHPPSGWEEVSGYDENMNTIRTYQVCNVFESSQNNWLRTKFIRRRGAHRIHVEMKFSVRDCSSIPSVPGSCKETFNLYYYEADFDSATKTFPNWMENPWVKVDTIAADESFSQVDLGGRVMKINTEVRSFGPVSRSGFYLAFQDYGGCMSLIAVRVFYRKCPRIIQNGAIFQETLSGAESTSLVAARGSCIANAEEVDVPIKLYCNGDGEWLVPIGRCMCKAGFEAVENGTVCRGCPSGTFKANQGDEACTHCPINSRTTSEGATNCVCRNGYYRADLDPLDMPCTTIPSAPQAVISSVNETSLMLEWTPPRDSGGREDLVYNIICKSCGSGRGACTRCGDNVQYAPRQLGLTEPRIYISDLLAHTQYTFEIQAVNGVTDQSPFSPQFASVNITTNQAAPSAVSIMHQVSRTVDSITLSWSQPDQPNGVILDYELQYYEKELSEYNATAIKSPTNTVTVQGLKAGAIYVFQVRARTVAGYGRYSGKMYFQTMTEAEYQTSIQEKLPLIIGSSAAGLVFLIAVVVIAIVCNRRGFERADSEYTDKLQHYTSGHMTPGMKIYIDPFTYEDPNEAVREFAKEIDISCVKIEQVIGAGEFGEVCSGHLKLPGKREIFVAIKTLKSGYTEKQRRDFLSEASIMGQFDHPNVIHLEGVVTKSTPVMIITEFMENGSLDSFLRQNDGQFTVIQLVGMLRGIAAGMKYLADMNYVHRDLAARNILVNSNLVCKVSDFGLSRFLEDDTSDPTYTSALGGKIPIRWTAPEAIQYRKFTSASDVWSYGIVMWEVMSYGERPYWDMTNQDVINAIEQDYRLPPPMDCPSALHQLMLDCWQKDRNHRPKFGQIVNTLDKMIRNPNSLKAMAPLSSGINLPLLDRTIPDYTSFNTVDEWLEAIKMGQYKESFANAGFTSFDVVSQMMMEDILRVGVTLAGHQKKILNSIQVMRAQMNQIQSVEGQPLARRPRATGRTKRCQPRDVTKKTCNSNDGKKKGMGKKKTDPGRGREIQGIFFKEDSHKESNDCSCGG
protocolNotes: phosphorylation enrichment, bacterial display (enrichment ratio); higher = better substrate or ligand; peptides without Tyr show the background;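 also: 11-residue human phosphosite peptides and single-mutation variants displayed on the E. coli surface, counted by deep sequencing, each peptide's frequency after selection divided by its frequency in the unselected input library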;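 also: frequency after pTyr selection over input frequency; kinase dosed for 20-30% of maximal phosphorylation in three min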
phosphorylation enrichment of 0.5 or higher: met. Under 0.5: not met.

Recorded results for 6 sequences are shown here.
| querySequence | labelClass |
| --- | --- |
| FDGGCYEQLFV [MC4R_Y41_S36Y_YF] | met |
| DTMQTYNGNDE [TSPAN7_Y131_A127T] | met |
| RHPYFYAPELL [ALB_Y174] | met |
| AIIGIYNLRDD [CDH23_Y2949_I2950N] | not met |
| FLAVGDHKPHI [IDS_Y225_Y225D] | not met |
| RSYSPCDYQPC [TNS1_Y796_Y796C] | met |

[ask] Identify whether the reported phosphorylation enrichment of the following sequence is 0.5 or greater: HLDRSYSYSYS [PEAR1_Y890_R885H]
[reply] not met

[ask] Please indicate if the recorded phosphorylation enrichment for NPSFNYEIVNQ [DYNC1H1_Y3379_R3384Q_YF] meets or exceeds 0.5.
[reply] met

[ask] Threshold query (phosphorylation enrichment >= 0.5) on KVMANYVYKAG [MAML2_Y513_M514V]
[reply] not met

[ask] Check the entry PIYEGYGLPHA [ACTA1_Y171_A172G] : does phosphorylation enrichment equal or exceed 0.5?
[reply] met

[ask] Check this sequence for phosphorylation enrichment at or above 0.5: YTGNTYRVGDT [FN1_Y106]
[reply] not met

[ask] Please indicate if the recorded phosphorylation enrichment for PGAPAYCVLME [MYO5A_Y1245_R1246C] meets or exceeds 0.5.
[reply] met

[ask] Dear colleague, could you confirm whether AFPVSYSSSSA [RET_Y687_G691S] has phosphorylation enrichment at or above 0.5?
[reply] not met

[ask] Decide: phosphorylation enrichment of VHNLDYFKMTT [FGFR3_Y647_K650M_YF] >= 0.5?
[reply] not met

----------
System: AncSZ
protocolNotes: phosphorylation enrichment, bacterial display (enrichment ratio); higher = better substrate or ligand; peptides without Tyr show the background
Listed sequences paired with reported phosphorylation enrichment
Output spec: single numeric token, no unit.

Previously resolved entries follow.
| querySequence | systemUnderTest | endpointResult |
| --- | --- | --- |
| DKITQYVEEVK [STX2_Y49] | AncSZ | 1.11 |
| FKNGDYSEVMK [LCT_Y1638_N1639S] | AncSZ | 0.697 |
| LRRREYQRQDF [PRKRIP1_Y90_YF] | AncSZ | 0.603 |

[ask] Query (sequence): SQDSAYHSGIQ [FLG_Y3940] ; field requested: phosphorylation enrichment
[reply] 0.557

[ask] Suppose we examine the sequence GRQVIYTENER [GPR143_Y231_G229V] ; what phosphorylation enrichment value has been reported?
[reply] 0.531

[ask] GET /values?readout=phosphorylation enrichment&item= DQGEQYKKELE [LMNA_Y259_V256G]
[reply] 1.39

[ask] Endpoint output: phosphorylation enrichment of LYNQDYPIHCV [GATM_Y227_S231C] . Value?
[reply] 0.811

----------
Items are presented alongside their recorded phosphorylation enrichment.
System: Fer (mouse)
protocolNotes: phosphorylation enrichment, bacterial display (enrichment ratio); higher = better substrate or ligand; peptides without Tyr show the background
Format: numeric value only, no unit, no commentary.

The examples below pair each entry with its known result.
| querySequence | systemUnderTest | phosphorylation enrichment |
| --- | --- | --- |
| AVAFVYFKSIG [ADGRL4_Y301_YF] | Fer (mouse) | 0.728 |
| AAVDEYLEFRR [FAM221A_Y17_YF] | Fer (mouse) | 0.421 |
| VEEDTYTMPST [PTK2_Y407_D402V] | Fer (mouse) | 0.741 |
| PADQAYSWYQH [NDST1_Y711_R709Q] | Fer (mouse) | 20.6 |
| GIYKDYYRYNF [PLA2G2D_Y85_S80G] | Fer (mouse) | 0.938 |

[ask] Return phosphorylation enrichment measured with Fer (mouse) given this sequence: SDVCMYRKNTY [SYNE2_Y570_I574T]
[reply] 0.401

[ask] Give phosphorylation enrichment (Fer (mouse)) of the following sequence: EQKKFYNAMKK [SCN5A_Y1495_YF]
[reply] 0.34

[ask] Observed phosphorylation enrichment on Fer (mouse) for HLNLTYRILSF [MMP23B_Y95_F91L] , please.
[reply] 0.605

[ask] Look up phosphorylation enrichment with Fer (mouse) for this sequence: KSSDVYVSFDF [SORL1_Y136_YF]
[reply] 4.79

[ask] Test system Fer (mouse); read-out phosphorylation enrichment; what value for CTTIHYNYMWN [TP53_Y234_C238W] ?
[reply] 1.77
